assayedSystem: T1, RBFOX1 RRM (Homo sapiens, UniProt Q9NWB1 109-208)
T1 sequence: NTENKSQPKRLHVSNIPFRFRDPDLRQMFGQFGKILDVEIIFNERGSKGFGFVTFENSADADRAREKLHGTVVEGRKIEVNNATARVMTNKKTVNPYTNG
protocolDetails: EMSA; HiTS-Eq, 1 nM pool, 10 min; buffer printed only for the single-RNA assays: 10 mM Tris pH 7.5, 150 mM NaCl, 3.4 mM EDTA, 0.001% NP-40, 30 C
details: tags: His6 N-terminal (pET28a); label: 5' 32P
The full ranking holds about 16,000 sequences; the median of “ka relative to ugcaugu” is about 0.0091, and the highest 2% start at about 0.032. What follows is part of a selection rich in the highest values, with near analogues and random picks from the rest.
For each record, write down the corresponding binding signal.

Could you tell me which binding signal is on file for CGGAUGC (DNA:RNA) RNA: GGGAGACCGGAAUUCAGAUUGUCCCGGAUGCUUAAAUCCCGUCGUAGCCACCA DNA 1: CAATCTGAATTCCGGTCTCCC DNA 2: TGGTGGCTACGACGGGATT ?
0.0275 KA relative to UGCAUGU

Try this binder too: CACCGGC (DNA:RNA) RNA: GGGAGACCGGAAUUCAGAUUGUCCCACCGGCUUAAAUCCCGUCGUAGCCACCA DNA 1: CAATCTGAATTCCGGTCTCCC DNA 2: TGGTGGCTACGACGGGATT
0.00645 KA relative to UGCAUGU

Request: CCCCGGC (DNA:RNA) RNA: GGGAGACCGGAAUUCAGAUUGUCCCCCCGGCUUAAAUCCCGUCGUAGCCACCA DNA 1: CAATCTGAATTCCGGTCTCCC DNA 2: TGGTGGCTACGACGGGATT
0.00228 KA relative to UGCAUGU

Can you handle GUCUUGC (DNA:RNA) RNA: GGGAGACCGGAAUUCAGAUUGUCCGUCUUGCUUAAAUCCCGUCGUAGCCACCA DNA 1: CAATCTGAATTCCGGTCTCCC DNA 2: TGGTGGCTACGACGGGATT next?
0.0291 KA relative to UGCAUGU
